What A600 measurement (averaged from 2 reps) was measured for each of the following?
- experimental-details: Solubility of the compounds (visual evaluation and A600 of dilutions)
- Type: physicochemical
- measurement-parameters: absorbance at 600 nm, 96-well plate; blank 0.0472; values in parentheses unreliable (precipitate)
Note: the reply should be a number with no unit written.

# A600 measurement (averaged from 2 reps) lookup, item Cc1c(NC(=O)c2ccc(CNCCO)cn2)cccc1-c1cccc(NC(=O)c2ccc(CNCCCNS(C)(=O)=O)cn2)c1C.Cl.Cl.Cl.Cl [Compound 17a]
0.2848

# A600 measurement (averaged from 2 reps) lookup, item Cc1c(NC(=O)c2ccc(CNCCCO)cn2)cccc1-c1cccc(NC(=O)c2ccc(CN[C@@H](C)CO)cn2)c1C [Compound 14]
0.05315

# A600 measurement (averaged from 2 reps) lookup, item Cc1c(NC(=O)c2ccc(CN[C@@H]3CCC[C@H]3O)cn2)cccc1-c1cccc(NC(=O)c2ccc(CN3CCC(O)CC3)cn2)c1C [Compound 11]
0.1117

# A600 measurement (averaged from 2 reps) lookup, item Cc1c(NC(=O)c2ccc(CN[C@@H](C)CO)cn2)cccc1-c1cccc(NC(=O)c2ccc(CN(C)CCO)cn2)c1C.Cl.Cl.Cl [Compound 2a]
0.1517

# A600 measurement (averaged from 2 reps) lookup, item Cc1c(NC(=O)c2ccc(CNCCO)cn2)cccc1-c1cccc(NC(=O)c2ccc(CNCCNS(C)(=O)=O)cn2)c1C [Compound 16]
0.0494

----------
What remaining activity at 0.005 µM was measured for each of the following?
- study-target: PD-1/PD-L1 (Homo sapiens, UniProt Q9NZQ7)
- Sequence (Q9NZQ7 19-238 limits assumed): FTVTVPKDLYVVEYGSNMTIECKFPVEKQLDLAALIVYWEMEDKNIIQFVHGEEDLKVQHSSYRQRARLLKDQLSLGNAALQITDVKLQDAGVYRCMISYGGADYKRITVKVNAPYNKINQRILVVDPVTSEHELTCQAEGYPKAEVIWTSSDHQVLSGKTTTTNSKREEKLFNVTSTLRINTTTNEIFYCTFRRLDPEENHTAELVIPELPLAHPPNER
- experimental-details: Homogeneous time-resolved fluorescence (HTRF) PD-1/PD-L1 assay (CisBio kit)
- Format: binding
- Set-up: Tag1 or Tag2 (kit's undisclosed tag); purchased CisBio
- measurement-parameters: 2 h, at the 5 nM concentration of the inhibitor; 5 nM hPD-L1, 50 nM hPD-1; read-out: HTRF Fraction of the undissociated protein complex
- Experimental: The certified CisBio kit was used to conduct the HTRF assay, adhering to the manufacturer’s guidelines. The assay setup comprised hPD-1, hPD-L1, anti-Tag1 tagged with Europium cryptate (HTRF donor), and anti-Tag2 tagged with XL665 (HTRF acceptor). […] Per the CisBio instructions, all components were combined, the plate was incubated at ambient temperature for 2 h, and the TR-FRET (time-resolved fluorescence energy transfer) was carried out using the Tecan Spark 20M. […]
Only the number, expressed in %, is required.

# remaining activity at 0.005 µM lookup, item Cc1c(NC(=O)c2ccc(CNCCCO)cn2)cccc1-c1cccc(NC(=O)c2ccc(CN3CCC(O)CC3)cn2)c1C
26

# remaining activity at 0.005 µM lookup, item Cc1c(NC(=O)c2ccc(CNCCO)cn2)cccc1-c1cccc(NC(=O)c2ccc(CNCCO)cn2)c1C [Cmpd A, reference compound]
18

# remaining activity at 0.005 µM lookup, item Cc1c(NC(=O)c2ccc(CN[C@@H](C)CO)cn2)cccc1-c1cccc(NC(=O)c2ccc(CN3CCC(O)CC3)cn2)c1C
30

# remaining activity at 0.005 µM lookup, item Cc1c(NC(=O)c2ccc(CN[C@@H](C)CO)cn2)cccc1-c1cccc(NC(=O)c2ccc(CN(C)CCO)cn2)c1C
42

# remaining activity at 0.005 µM lookup, item Cc1c(NC(=O)c2ccc(CN[C@@H]3CCC[C@H]3O)cn2)cccc1-c1cccc(NC(=O)c2ccc(CN3CCC(O)CC3)cn2)c1C
43
